target: human ACE2 (Homo sapiens, UniProt Q9BYF1); format: biochemical
Sequence (Q9BYF1 18-740 limits assumed): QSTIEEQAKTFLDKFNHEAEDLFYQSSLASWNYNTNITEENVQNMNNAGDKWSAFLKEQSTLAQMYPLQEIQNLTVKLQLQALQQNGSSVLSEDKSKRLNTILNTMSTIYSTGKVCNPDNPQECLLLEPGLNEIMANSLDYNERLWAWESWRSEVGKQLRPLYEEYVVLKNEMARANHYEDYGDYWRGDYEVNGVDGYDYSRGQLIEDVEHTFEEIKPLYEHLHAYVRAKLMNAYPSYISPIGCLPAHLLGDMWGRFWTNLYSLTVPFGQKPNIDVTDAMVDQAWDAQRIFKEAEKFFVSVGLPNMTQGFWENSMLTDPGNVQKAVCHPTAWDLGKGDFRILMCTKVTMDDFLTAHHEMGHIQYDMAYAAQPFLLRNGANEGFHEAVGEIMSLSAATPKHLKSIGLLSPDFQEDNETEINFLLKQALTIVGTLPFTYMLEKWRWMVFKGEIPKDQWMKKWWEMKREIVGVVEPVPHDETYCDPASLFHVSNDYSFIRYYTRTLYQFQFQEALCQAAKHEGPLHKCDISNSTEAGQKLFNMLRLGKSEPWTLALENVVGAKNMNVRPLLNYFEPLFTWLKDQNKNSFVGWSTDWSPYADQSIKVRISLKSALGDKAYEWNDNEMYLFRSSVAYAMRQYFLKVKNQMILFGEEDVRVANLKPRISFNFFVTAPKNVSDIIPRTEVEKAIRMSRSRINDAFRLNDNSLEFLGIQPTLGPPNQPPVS
Non-standard residues stand in square brackets, D forms with d. Residues, ends and D or L forms follow the SMILES beside them. *: point of attachment. Sta = CC(C)C[C@H](N)[C@@H](O)CC(=O)O; Isovaleryl = CC(C)CC(=O)*

{"columns": ["compound", "effect on ACE2 activity"],
 "data": [
  ["CC(C)CC(=O)N[C@H](C(=O)N[C@H](C(=O)N[C@@H](CC(C)C)[C@@H](O)CC(=O)N[C@@H](C)C(=O)N[C@@H](CC(C)C)[C@@H](O)CC(=O)O)C(C)C)C(C)C [pepstatin A] (Isovaleryl-VV[Sta]A[Sta]-OH)", "no effects"],
  ["NCCc1ccc(S(=O)(=O)F)cc1", "no effects"],
  ["CC(=O)N[C@@H](CC(C)C)C(=O)N[C@@H](CC(C)C)C(=O)N[C@H](C=O)CCCNC(=N)N", "no effects"]
]}
